- Tested on: MS2 coat protein
- testSummary: apparent Kd, MS2 coat protein; higher = weaker binding; RNA-MaP array; FMN 200 µM where present
- conditionSummary: designed as: ON switch for flavin mononucleotide; no ligand
// apparent Kd lookup, one value per entry
Provide only the numeric value, understood in nM.

Take a look at these entries with their results.
# seq, testTarget, apparent Kd, nM
records = [
    ("ACCGACACUUACAUGAGGAUCACCCAUGUGUGUAAUCGGACACAGGAUAUCCAUGGUAAGUAUCGGGAGAAGGGUGGAAAGAAA", "MS2 coat protein", 88.9),
    ("UGAUCUUACAUGAGGAUCACCCAUGUAGGCCAGUAACUAACCAGAAGGCACGUAGAGUAAAACAGUGAGGAUAUGGAUGACAUA", "MS2 coat protein", 11.7),
    ("CGUGAACAUGAGGAUCACCCAUGUGAAAAACGUAGAGGAUAUGUCACAUGAGUGUAAAAGACAGAAGGCUAUCGUG", "MS2 coat protein", 151),
    ("GUAGCAUACCAAGGAUAUUCAGGGCUUGGAUAGACAUGAGGAUCACCCAUGUGGCGAAAGUCAAGGGAGAAGGUGGUAUGCUAC", "MS2 coat protein", 17.6),
    ("GUGCACACUCGAGGAUAUCGGAGAGUACUCCUUCGAGAAGGCGAUUCGUGCCGUGUUAUUCUGGACAUGAGGAUCACCCAUGUG", "MS2 coat protein", 125),
    ("UUGCUCGUGUGAGGAUAUGCCGCCGUUUCGGCUGCAGAAGGUACUAUAAUACAUGAGGAUCACCCAUGUCUCUGUUGUUUCGUG", "MS2 coat protein", 27.6),
    ("CUUUUAUAAUAGAAGGUAGACUUUAAGUGGAUCACCCAUGUGUUGGUACUAAGGAUAUGUAGUAACAUGAGGAUCACCCAUGUU", "MS2 coat protein", 20.5),
    ("GGGUACAUCGGAGGAUAUCAUGUAUAUACAUGAGGAUCACCCAUGUCGUACGAGAGUACGGAGAUUGAGAAGGCCGAUGUACCG", "MS2 coat protein", 39.4),
    ("GAAUUCGCAUGAGGAUAUGCACUCAUUUCAUGUGCAGAAGGUAUAUCAUUAGACAUGAGGAUCACCCAUGUAUUGGUCAAUAAC", "MS2 coat protein", 17.8),
    ("GUAUGAUUAAGAGGAUAUAUACAACAUGAGGAUCACCCAUGUACCCGUGUAGUAGAAGGUUUGUUUUUAUAUAAUAAUAUAAUU", "MS2 coat protein", 26.6),
]

Now for the sequence whose apparent Kd we want.
**Query** Fill in the blank: the reported apparent Kd of UAUAACUAACAGAAGGGUAUUUGGGAUCAUUAUUAGGAGGAAAUACUAUACAGGAUAUGUAAUACAUGAGGAUCACCCAUGUUC is ____.
**Result** 20

====

- Test system: MS2 coat protein
- testSummary: apparent Kd, MS2 coat protein; higher = weaker binding; RNA-MaP array; FMN 200 µM where present
- conditionSummary: designed as: OFF switch for flavin mononucleotide; no ligand
// apparent Kd lookup, one value per entry
Provide only the numeric value, understood in nM.

Take a look at these entries with their results.
# seq, readoutName, endpointUnit, measValue
measured = [
    ("CUCGGACAUGAGGAUCACCCAUGUGAGGAUAUGGCGCGAUCGUCGAAAGACGAUAGCGCCAGAAGGCACAAAUG", "apparent Kd", "nM", 65.4),
    ("AAAACUGAAGGAUAUGCCAGGGUGAGAGCUGGUGACGUUUAACAUGAGGAUCACCCAUGUAGAAGGUCAAAACA", "apparent Kd", "nM", 15.3),
]

**Query** Fill in the blank: the reported apparent Kd of UUAUUAUAUGUAGGAUAUGCAUAUUAUUAUUGUGCAGAAGGACAUGAGGAUCACCCAUGUAUAUUAUUAUUAUAUAUUAUAUGU is ____.
**Result** 25.7

**Query** Do the same for UUUUAACAUGAGGAUCACCCAUGUGAGGAUAUCGUUAUUUAUAUUAAUAUUAAUAAAACGAGAAGGCACAUUUU please
**Result** 112

**Query** Do the same for UGAUAGGACAGAGGAUAUACCGAUAGGAGAUACUAUCGACUAGUCCUCACAUGAGGAUCACCCAUGUAGAAGGCUGUCCUAUCU please
**Result** 22.8

**Query** Do the same for GUCAGCUCGUGAGGAUAUACAUGUGCUGGAUACAGCAUUAAAUAAUUCACAUGAGGAUCACCCAUGUAGAAGGCACGAGCUGAU please
**Result** 17.9

**Query** Do the same for UGACACUUGAGGGUCUCCCUUGACAUGAGGAUCACCCAUGUGCAGGAUAUACGUGUGAUGGUAUAGUAGAAGGGCACUCUAUGU please
**Result** 27.7
